B1: glmS ribozyme (parent)
chain: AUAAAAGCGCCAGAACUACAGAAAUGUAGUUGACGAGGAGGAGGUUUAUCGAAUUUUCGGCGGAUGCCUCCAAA

Variants of: B1
PROCEDURE DETAILS: self-cleavage kobs at 640 uM GlcN6P; higher = faster cleavage; RNA array
TEST PARAMETERS: with glucosamine-6-phosphate
Variants at the floor of the assay were thinned out.
MEASUREMENT LABEL: self-cleavage kobs at 640 uM GlcN6P (s⁻¹)
Please give a number only; it is taken to be in s⁻¹.

Which self-cleavage kobs at 640 uM GlcN6P is listed for A12G A53G ?
0.000231

Now the same for U46G C71A
0.000943

Now the same for A33C A39U
5.65e-05

Now the same for G29C U55C
0.000561

Turning now to a further record.
Which self-cleavage kobs at 640 uM GlcN6P is listed for U47G C67G ?
0.000248
